TARGET_ENTITY: HIV reverse transcriptase (Human immunodeficiency virus type 1 group M subtype B)
ASSAY_TEXT: biochemical
TEST_SETTINGS: ratio of IC50 HIV reverse transcriptase (A) to IC50 P-388 (B)
Protocol: (a) After treating a supernatant of a culture of HIV-infected T4-cells (Molt 4/HTLV 1116/H9) with 9.5% polyethylene glycol for 3 hours, the supernatant was centrifuged at 2500 rpm for 30 minutes to obtain a precipitate. […] After completion of the reaction, the whole reaction mixture was placed on a nitrocellulose membrane filter so as to adsorb the resultant DNA into the filter. […] The amount of the resultant DNA on the nitrocellulose membrane filter was calculated by measuring its radioactivity. […]
Where a name gives a salt, the structure may show the parent alone.
QUANTITY_MEASURED: Enzyme inhibitory activity/cytotoxicity ratio (A)/(B)
Just the number, please, no unit after it.

Below, 4 compounds whose answers are already recorded.
CCCCCCOc1ccc(C(=O)OCC(=O)[C@]2(O)Cc3c(O)c4c(c(O)c3[C@@H](O[C@H]3C[C@H](N)[C@H](O)[C@H](C)O3)C2)C(=O)c2c(OC)cccc2C4=O)cc1OCCCCCC [NOVA-9.1/2H2 SO4] | 4.4
COCc1ccc(C(=O)OCC(=O)[C@]2(O)Cc3c(O)c4c(c(O)c3[C@@H](O[C@H]3C[C@H](N)[C@H](O)[C@H](C)O3)C2)C(=O)c2c(OC)cccc2C4=O)cc1OC | 103
CCCCCCCCCCCCCCCCCCOCc1ccc(C(=O)OCC(=O)[C@]2(O)Cc3c(O)c4c(c(O)c3[C@@H](O[C@H]3C[C@H](N)[C@H](O)[C@H](C)O3)C2)C(=O)c2c(OC)cccc2C4=O)cc1OCCCCCCCCCCCCCCCCCC [NOVA-5.HCl] | 6.9
CCCCCCOCc1ccc(C(=O)OCC(=O)[C@]2(O)Cc3c(O)c4c(c(O)c3[C@@H](O[C@H]3C[C@H](N)[C@H](O)[C@H](C)O3)C2)C(=O)c2c(OC)cccc2C4=O)cc1OCCCCCC | 35

Consider the record given below.
Reported Enzyme inhibitory activity/cytotoxicity ratio (A)/(B), compound CCCCCCCCCCCCCCCCCCOc1ccc(C(=O)OCC(=O)[C@]2(O)Cc3c(O)c4c(c(O)c3[C@@H](O[C@H]3C[C@H](N)[C@H](O)[C@H](C)O3)C2)C(=O)c2c(OC)cccc2C4=O)cc1OCCCCCCCCCCCCCCCCCC [NOVA-11.HCl] : ____
53

---

TARGET_ENTITY: HIV reverse transcriptase (Human immunodeficiency virus type 1 group M subtype B)
ASSAY_TEXT: biochemical
TEST_SETTINGS: HIV reverse transcriptase inhibitory activity (IC50, μg/ml) (A), 37° C., 30 minutes; HIV lysate
Where a name gives a salt, the structure may show the parent alone.
QUANTITY_MEASURED: pIC50
Scale note: pIC50 = -log10(concentration in M).

Guide cases for pIC50, answers given:
CCCCCCOCc1ccc(C(=O)OCC(=O)[C@]2(O)Cc3c(O)c4c(c(O)c3[C@@H](O[C@H]3C[C@H](N)[C@H](O)[C@H](C)O3)C2)C(=O)c2c(OC)cccc2C4=O)cc1OCCCCCC | 4.71
CCCCCCOc1ccc(C(=O)OCC(=O)[C@]2(O)Cc3c(O)c4c(c(O)c3[C@@H](O[C@H]3C[C@H](N)[C@H](O)[C@H](C)O3)C2)C(=O)c2c(OC)cccc2C4=O)cc1OCCCCCC [NOVA-9.HCl] | 4.75
COc1cccc2c1C(=O)c1c(O)c3c(c(O)c1C2=O)C[C@@](O)(C(=O)COC(=O)c1ccc2c(c1)OC(C)(C)OC2)C[C@@H]3O[C@H]1C[C@H](N)[C@H](O)[C@H](C)O1 | 4.50
CCCCCCOc1ccc(C(=O)OCC(=O)[C@]2(O)Cc3c(O)c4c(c(O)c3[C@@H](O[C@H]3C[C@H](N)[C@H](O)[C@H](C)O3)C2)C(=O)c2c(OC)cccc2C4=O)cc1OCCCCCC [NOVA-9] | 4.63

What pIC50 value was documented for this compound, COCc1ccc(C(=O)OCC(=O)[C@]2(O)Cc3c(O)c4c(c(O)c3[C@@H](O[C@H]3C[C@H](N)[C@H](O)[C@H](C)O3)C2)C(=O)c2c(OC)cccc2C4=O)cc1OC ?
4.38

Another compound: COc1ccc(C(=O)OCC(=O)[C@]2(O)Cc3c(O)c4c(c(O)c3[C@@H](O[C@H]3C[C@H](N)[C@H](O)[C@H](C)O3)C2)C(=O)c2c(OC)cccc2C4=O)cc1OC
4.57

Item: CCCCCCCCCCCOc1ccc(C(=O)OCC(=O)[C@]2(O)Cc3c(O)c4c(c(O)c3[C@@H](O[C@H]3C[C@H](N)[C@H](O)[C@H](C)O3)C2)C(=O)c2c(OC)cccc2C4=O)cc1OCCCCCCCCCCC [NOVA-10.HCl]
4.79

Can you check CCCCCCCCCCCOCc1ccc(C(=O)OCC(=O)[C@]2(O)Cc3c(O)c4c(c(O)c3[C@@H](O[C@H]3C[C@H](N)[C@H](O)[C@H](C)O3)C2)C(=O)c2c(OC)cccc2C4=O)cc1OCCCCCCCCCCC [NOVA-3.HCl] next?
4.73

Would you mind doing COc1cccc2c1C(=O)c1c(O)c3c(c(O)c1C2=O)C[C@@](O)(C(=O)COC(=O)c1ccc(CO)c(O)c1)C[C@@H]3O[C@H]1C[C@H](N)[C@H](O)[C@H](C)O1 as well?
4.10

What about CCCCC(=O)Oc1ccc(C(=O)OCC(=O)[C@]2(O)Cc3c(O)c4c(c(O)c3[C@@H](O[C@H]3C[C@H](N)[C@H](O)[C@H](C)O3)C2)C(=O)c2c(OC)cccc2C4=O)cc1OC(=O)CCCC [NOVA-12.HCl] ?
4.89

Item: CCCCCCCCCCCCCCCCCCOCc1ccc(C(=O)OCC(=O)[C@]2(O)Cc3c(O)c4c(c(O)c3[C@@H](O[C@H]3C[C@H](N)[C@H](O)[C@H](C)O3)C2)C(=O)c2c(OC)cccc2C4=O)cc1OCCCCCCCCCCCCCCCCCC [NOVA-5.HCl]
4.74

Try CCCCCCOc1ccc(C(=O)OCC(=O)[C@]2(O)Cc3c(O)c4c(c(O)c3[C@@H](O[C@H]3C[C@H](N)[C@H](O)[C@H](C)O3)C2)C(=O)c2c(OC)cccc2C4=O)cc1OCCCCCC [NOVA-9.1/2H2 SO4] next.
4.57

Queued: CCCCCCCCCCCOc1cc(C(=O)OCC(=O)[C@]2(O)Cc3c(O)c4c(c(O)c3[C@@H](O[C@H]3C[C@H](N)[C@H](O)[C@H](C)O3)C2)C(=O)c2c(OC)cccc2C4=O)ccc1CO
4.83

Then this compound: CCCCCCCCCCCCCCCCCCOc1ccc(C(=O)OCC(=O)[C@]2(O)Cc3c(O)c4c(c(O)c3[C@@H](O[C@H]3C[C@H](N)[C@H](O)[C@H](C)O3)C2)C(=O)c2c(OC)cccc2C4=O)cc1OCCCCCCCCCCCCCCCCCC [NOVA-11.HCl]
4.07
